- systemUnderTest: Ubiquitin carboxyl-terminal hydrolase 1 (Homo sapiens) (UniProt O94782)
- Sequence (O94782 whole entry, looked up): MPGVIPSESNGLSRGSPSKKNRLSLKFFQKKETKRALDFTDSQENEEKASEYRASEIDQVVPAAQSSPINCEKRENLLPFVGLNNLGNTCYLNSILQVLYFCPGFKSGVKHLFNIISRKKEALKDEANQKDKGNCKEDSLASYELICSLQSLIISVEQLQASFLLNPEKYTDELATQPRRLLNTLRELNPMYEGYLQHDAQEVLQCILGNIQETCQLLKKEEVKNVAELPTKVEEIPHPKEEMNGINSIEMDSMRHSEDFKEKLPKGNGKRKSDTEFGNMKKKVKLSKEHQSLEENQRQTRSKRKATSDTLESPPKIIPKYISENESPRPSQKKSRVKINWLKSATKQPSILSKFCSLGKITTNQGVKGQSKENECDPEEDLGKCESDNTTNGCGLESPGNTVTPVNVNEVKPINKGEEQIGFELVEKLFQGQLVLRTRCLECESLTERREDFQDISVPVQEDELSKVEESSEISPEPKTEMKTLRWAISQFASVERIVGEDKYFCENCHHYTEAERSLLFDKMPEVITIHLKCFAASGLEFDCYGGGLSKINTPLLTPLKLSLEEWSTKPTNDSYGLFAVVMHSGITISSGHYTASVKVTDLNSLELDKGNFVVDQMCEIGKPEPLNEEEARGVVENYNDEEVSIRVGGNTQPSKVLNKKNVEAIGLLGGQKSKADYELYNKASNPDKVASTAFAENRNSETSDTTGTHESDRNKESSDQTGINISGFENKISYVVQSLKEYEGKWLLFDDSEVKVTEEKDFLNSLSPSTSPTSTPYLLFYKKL
- testName: Inhibitors of USP1/UAF1: Pilot qHTS (AID 504865); also: nearly all actives have a fitted effect of over 35% in size
- settings: purified USP1/UAF1, Ub-rhodamine cleavage fluorescence; series mostly up to 114 µM
Inconclusive results are not listed. Calls of active or inactive are those of the source. Calls follow the shape of the dose curve; as a rule, active = well fitted inhibition curve with a large enough effect; inconclusive = small, poorly fitted or top-dose-only effect; inactive = flat fitted curve, though single readings scatter.
Answer with one of the outcomes true for active, false for inactive

1) CC1CCC2[C@](C)(CO)C(O)CC[C@]2(C)C12CCC(CO)(CCO)O2 (stereo not given in full)
false
2) COC(=O)CCC(C)C1CCC2C3C(C[C@H](O)C12C)C1(C)CC[C@@H](O)CC1C[C@H]3O (stereo not given in full)
false
3) COc1ccc2c(c1OC)C(Cc1ccccc1)N1CCc3cc4c(cc3C1=C2)OCO4 (stereo not given)
true
4) O=C(O)c1ccccc1-c1c2cc(Br)c(=O)c(Br)c-2oc2c(Br)c(O)c(Br)cc12
false
5) CS(C)(=O)=O
false

Read the next record carefully.
Q. What is the recorded call for this compound in the test? NCC1O[C@H](O[C@@H]2C(O)[C@H](O[C@H]3OC(CO)C(O)C(N)C3O)[C@@H](N)C[C@H]2N)[C@@H](N)CC1O (stereo not given in full)
A. false
